EXPERIMENT_DESCRIPTION: IUF_NPC2a_radial_glia_migration_120hr: Leibniz Research Institute for Environmental Medicine (IUF) 120-hour Neural Progenitor Cell Migration Assay for Radial Glia Migration (NPC2a) (AID 2284298)
Calls of active or inactive are those of the source. Rule for the calls: active = hit-call score of the fitted dose curve at least 0.9, where 1 is the maximum; inactive = score below 0.9.
RESULT_TYPE: AC50

> print(dat)
                                   compound            result
1                        CCOP(=S)(OCC)SCSCC          inactive
2        O=P(Oc1ccccc1)(Oc1ccccc1)Oc1ccccc1    11 µM (active)
3       CO/N=C(/C(=O)OC)c1ccccc1COc1ccccc1C  22.9 µM (active)
4  CCCCC(CC)COP(=O)(Oc1ccccc1)Oc1ccccc1 (stereo unspecified)          inactive
5  O=S1(=O)OCC2C(CO1)C1(Cl)C(Cl)=C(Cl)C2(Cl)C1(Cl)Cl (stereo unspecified)          inactive
6           CCCCOCCOP(=O)(OCCOCCCC)OCCOCCCC          inactive

These data points were gathered from PubChem BioAssay (EPA / NIEHS).
